SYSTEM_UNDER_TEST: ZFP SBS#934 (synthetic)
Sequence (chain, as listed by the source): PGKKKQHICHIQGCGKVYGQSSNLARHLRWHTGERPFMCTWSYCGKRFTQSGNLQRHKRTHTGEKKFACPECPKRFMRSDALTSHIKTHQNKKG
EXPERIMENT: EMSA
CONDITIONS: tags: MBP fusion

[
  {
    "BINDER": "ATGGAAGAT (dsDNA) DNA 1: ATGGAAGAT DNA 2: ATCTTCCAT",
    "Kd, pM": 70
  }
]
